biological target: human orexin 1 receptor (Homo sapiens, UniProt O43613); construct: expressed in transfected cells; test: Calcium accumulation in cells (FLIPR), antagonism of orexin A, human orexin 1 receptor; type: cell-based; conditions: measured at a concentration of 10 μM of compound; read-out: FLIPR hOx1R % inhibition
Sequence (O43613 whole entry): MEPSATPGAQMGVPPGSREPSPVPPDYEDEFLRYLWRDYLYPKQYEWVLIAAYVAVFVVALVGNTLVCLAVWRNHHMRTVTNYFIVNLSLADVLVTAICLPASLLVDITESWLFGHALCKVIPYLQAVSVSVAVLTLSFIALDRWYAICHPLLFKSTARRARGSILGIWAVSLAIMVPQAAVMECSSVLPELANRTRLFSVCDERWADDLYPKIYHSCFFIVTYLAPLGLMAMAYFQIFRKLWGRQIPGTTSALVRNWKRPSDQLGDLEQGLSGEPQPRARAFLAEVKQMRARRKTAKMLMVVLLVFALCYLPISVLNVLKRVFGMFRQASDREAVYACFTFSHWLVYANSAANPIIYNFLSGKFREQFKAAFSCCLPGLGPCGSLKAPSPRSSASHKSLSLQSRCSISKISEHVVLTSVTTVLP
measurement_type: inhibition at 10 µM (%)
# output: bare number, implied unit %

Study these solved cases before continuing.
[
  {
    "compound": "Cc1cc(C#N)nc(N2CCC3(CC2)NCCN(Cc2nc(C)oc2-c2ccccc2)C3=O)n1",
    "result_units": "%",
    "inhibition at 10 µM": 29
  },
  {
    "compound": "COc1ccc(-c2cn(C)nc2CN2CCNC3(CCN(c4nc(C)cc(C)n4)CC3)C2=O)cc1OC",
    "result_units": "%",
    "inhibition at 10 µM": 25
  },
  {
    "compound": "N#Cc1ccnc(N2CCC3(CC2)COCC(=O)N3Cc2cccc3[nH]ccc23)n1",
    "result_units": "%",
    "inhibition at 10 µM": 25
  },
  {
    "compound": "Cc1cc(C)nc(N2CCC3(CC2)NCCN(Cc2ccccc2-c2ncc(C)o2)C3=O)n1",
    "result_units": "%",
    "inhibition at 10 µM": 32
  },
  {
    "compound": "Cc1ccnc(N2CCC3(CCN(Cc4c[nH]c5ccccc45)C3=O)CC2)n1",
    "result_units": "%",
    "inhibition at 10 µM": 25
  }
]

Now turn to the next compound.
Which measured inhibition at 10 µM value corresponds to COc1cccc(-c2oc(C)nc2CN2CCNC3(CCN(c4nccc(C)n4)CC3)C2=O)c1 ?
44
